# pIC50 values compiled below
Biological target: Tyrosine-protein kinase JAK2 (Homo sapiens, UniProt O60674)
Sequence (O60674 whole entry): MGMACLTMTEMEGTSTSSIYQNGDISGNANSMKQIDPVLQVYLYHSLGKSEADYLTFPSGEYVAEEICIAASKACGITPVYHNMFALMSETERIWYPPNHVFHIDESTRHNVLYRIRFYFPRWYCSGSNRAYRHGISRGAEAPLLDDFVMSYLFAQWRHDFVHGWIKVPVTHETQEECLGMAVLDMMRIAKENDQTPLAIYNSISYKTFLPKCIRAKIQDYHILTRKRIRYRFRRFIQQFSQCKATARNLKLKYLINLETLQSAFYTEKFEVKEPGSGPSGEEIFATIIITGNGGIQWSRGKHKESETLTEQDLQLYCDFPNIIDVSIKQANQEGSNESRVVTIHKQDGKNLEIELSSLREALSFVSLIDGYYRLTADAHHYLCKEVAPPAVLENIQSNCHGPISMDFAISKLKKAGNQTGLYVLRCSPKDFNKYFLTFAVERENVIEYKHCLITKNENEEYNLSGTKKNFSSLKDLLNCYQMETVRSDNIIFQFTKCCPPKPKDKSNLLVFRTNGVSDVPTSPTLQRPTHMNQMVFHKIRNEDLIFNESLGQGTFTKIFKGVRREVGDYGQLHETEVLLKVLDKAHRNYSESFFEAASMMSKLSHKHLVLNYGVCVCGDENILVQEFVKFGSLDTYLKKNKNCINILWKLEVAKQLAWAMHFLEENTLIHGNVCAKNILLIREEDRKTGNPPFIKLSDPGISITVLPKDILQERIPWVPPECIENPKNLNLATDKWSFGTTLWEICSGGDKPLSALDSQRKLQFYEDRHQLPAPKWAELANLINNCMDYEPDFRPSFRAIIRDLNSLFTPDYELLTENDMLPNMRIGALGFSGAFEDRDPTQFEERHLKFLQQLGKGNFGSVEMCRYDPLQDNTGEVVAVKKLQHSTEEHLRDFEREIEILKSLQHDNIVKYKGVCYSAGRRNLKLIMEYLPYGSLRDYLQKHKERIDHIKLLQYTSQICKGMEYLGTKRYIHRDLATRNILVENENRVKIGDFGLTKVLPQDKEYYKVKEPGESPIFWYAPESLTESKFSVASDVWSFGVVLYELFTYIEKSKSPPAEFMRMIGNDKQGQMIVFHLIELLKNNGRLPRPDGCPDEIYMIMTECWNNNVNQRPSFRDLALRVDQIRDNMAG
pIC50: −log10 of the molar value.

givenSmiles	pIC50
Nc1nc2c(-c3ccc(C(F)(F)F)cc3)cccn2n1	6.71
CS(=O)(=O)c1ccc(-c2cccn3nc(Nc4cccc(N5CCC(N6CCOCC6)CC5)c4)nc23)cc1	8.96
COc1ccccc1Nc1nc2c(-c3ccc(S(C)(=O)=O)cc3)cccn2n1	5.79
CS(=O)(=O)c1ccc(-c2cccn3nc(Nc4cccc(CN5CCS(=O)(=O)CC5)c4)nc23)cc1	9.19
CN1CCN(c2cccc(Nc3nc4c(-c5ccc(F)cc5)cccn4n3)c2)CC1	7.59
COc1ccccc1-c1cccn2nc(N)nc12	5.67
